# assay-name: ABTS initial absorbance (A436) reduction rate (Test Example 3)
# Type: physicochemical
# experimental-parameters: in one minute at 25° C.; 1 mM (single compound) or 0.011 g nitrogen element in 100 mL (composition); pH 8.5
Counter-ions that a name gives are not always drawn.
measurement-name: A436 reduction rate (%)
# number only, unit % dropped from output

Ask | I have this compound here, O[C@H](CS)[C@H](O)CS (racemic) [DTT, dithiothreitol, reference compound] , and I need its recorded A436 reduction rate (%).
Reply | 87.81

Ask | Can you handle O=C1O[C@H]([C@@H](O)CO)C(O)=C1O next?
Reply | 87.81

Ask | Can you handle O=C(CS)OCC(O)CO (centres unmarked) [GMT, glyceryl monothioglycolate, reference compound] next?
Reply | 87.81

Ask | Can you handle Cc1c(C)c2c(c(C)c1O)CCC(C)(C(=O)O)O2 (centres unmarked) next?
Reply | 83.90

Ask | Can you handle NC(N)=O [Urea, urea, reference compound] next?
Reply | 0.00

Ask | Can you handle O=c1[nH]c(=O)c2[nH]c(=O)[nH]c2[nH]1 next?
Reply | 71.49

Ask | Can you handle N.O=C(O)CS [Ammonium thioglycolate, ammonium thioglycolate, reference compound] next?
Reply | 87.81

Ask | Can you handle O=CC(=O)O next?
Reply | 0.33

Ask | Can you handle N[C@@H](CCC(=O)N[C@@H](CS)C(=O)NCC(=O)O)C(=O)O [Glutathione (reduced form), glutathione (reduced form)] next?
Reply | 87.81

Ask | Can you handle NCCS [Cysteamine hydrochloride, cysteamine hydrochloride, reference compound] next?
Reply | 87.81

Ask | Can you handle CC(=O)N[C@@H](CS)C(=O)O next?
Reply | 87.81

Ask | Can you handle N.N.O=S(=O)(O)O [Ammonium sulfate, ammonium sulfate, reference compound] next?
Reply | 0.00

Ask | Can you handle Cl.N[C@@H](CS)C(=O)O [L-cysteine hydrochloride] next?
Reply | 87.81

Ask | Can you handle O=S([O-])[O-].[Na+].[Na+] [Sodium sulfite, sodium sulfite] next?
Reply | 87.81

Entry source: patent US20220017877A1
